The measured values listed here are drawn from PubChem BioAssay AID588413.

test: Gli-Sufu pathway antagonists, primary screen, luciferase luminescence, Sufu-KO-LIGHT cells, uHTS (AID 588413); conditions: Sufu-KO-LIGHT fibroblasts, Gli luciferase reporter luminescence; at 5 µM
The campaign covered roughly 340,000 compounds. About 2,500 (0.74%) were called active.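 How the source made its calls: active means inhibition above about 55% (limit read from the data); inactive means the rest.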 The list comes from a sample in which actives are over-represented; it also holds close analogues and randomly drawn compounds.
Outcome codes: active, inactive

{"molecule": "CSc1ncccc1C(=O)NCc1ccccc1Cl", "groupLabel": "inactive"}
{"molecule": "CC1(C)CC(=O)c2sc(N)nc2C1", "groupLabel": "inactive"}
{"molecule": "CCC1CCCCN1C(=S)NC(=O)c1ccco1 (configuration not stated)", "groupLabel": "inactive"}
{"molecule": "CNC(=S)N1CCN(c2ccccn2)CC1", "groupLabel": "inactive"}
{"molecule": "CCCc1nc(N)nc2c1C(=O)CC(C)(C)C2", "groupLabel": "active"}
{"molecule": "Cn1c(=O)c2c(nc(NCCNC(=O)c3ccco3)n2Cc2ccccc2F)n(C)c1=O", "groupLabel": "inactive"}
{"molecule": "Cc1cc(N2C(=O)C(=O)/C(=C(/O)c3ccccc3)C2c2cccc(Br)c2)no1 (configuration not stated)", "groupLabel": "inactive"}
{"molecule": "NC(=O)NC(CC(=O)NNC(=O)c1ccccn1)c1ccc(Cl)cc1 (configuration not stated)", "groupLabel": "inactive"}
{"molecule": "Cc1cccc(S(=O)(=O)N2CN(CC3CCCO3)c3nc4ccccc4nc32)c1 (configuration not stated)", "groupLabel": "inactive"}
{"molecule": "CN(CC(=O)NC(=O)Nc1ccccc1F)Cc1ccccc1", "groupLabel": "inactive"}
{"molecule": "O=c1c2cc([N+](=O)[O-])ccc2nc2n1CCC2", "groupLabel": "inactive"}
{"molecule": "COc1ccc(Cc2nnc(N/N=C/c3ccccc3O)[nH]c2=O)cc1OC", "groupLabel": "active"}
